target: Cannabinoid receptor 1 (Homo sapiens) (UniProt P21554); assay: Displacement of [3H]SR141716A from human CB1 expressed in CHO cells at 10 uM; type: cell-based
Sequence (P21554 whole entry): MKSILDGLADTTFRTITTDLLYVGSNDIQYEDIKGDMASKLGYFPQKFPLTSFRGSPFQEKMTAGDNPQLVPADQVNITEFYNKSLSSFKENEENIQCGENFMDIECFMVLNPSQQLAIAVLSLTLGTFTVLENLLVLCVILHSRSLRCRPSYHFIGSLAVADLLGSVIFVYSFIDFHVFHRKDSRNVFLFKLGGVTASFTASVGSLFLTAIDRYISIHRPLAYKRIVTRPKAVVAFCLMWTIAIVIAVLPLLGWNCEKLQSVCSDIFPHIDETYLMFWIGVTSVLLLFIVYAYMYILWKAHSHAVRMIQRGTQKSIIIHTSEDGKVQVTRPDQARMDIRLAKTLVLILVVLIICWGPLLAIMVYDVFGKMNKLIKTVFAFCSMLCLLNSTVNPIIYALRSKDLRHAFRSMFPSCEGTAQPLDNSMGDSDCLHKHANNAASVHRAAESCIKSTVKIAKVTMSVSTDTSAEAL
metric: Activity (%)

The following compounds have reported results that may help.
CCCCCCCCN1C(=O)C(c2ccccc2)(c2ccccc2)NC1=S : 38.8
CCCCCCCCN1C(=O)NC(c2ccc(Cl)cc2)(c2ccc(Cl)cc2)C1=O : 39.5
O=C1N(c2ccccc2)C(=S)NC1(c1ccccc1)c1ccccc1 : 32.6
CCCCCCCCN1C(=O)NC(c2ccc(Br)cc2)(c2ccc(Br)cc2)C1=O : 45.1

P. CCN1C(=O)C(c2ccccc2)(c2ccccc2)NC1=S
Q. CCCCCCCCN1C(=O)C(c2ccc(Br)cc2)(c2ccc(Br)cc2)NC1=S
Lab log: flag the item ( P or Q ) with the smaller Activity figure. When you have decided, please share the label of that item.
Q
(Q: 23.4%, P: 40%)

###

biological target: Cannabinoid receptor 1 (Homo sapiens) (UniProt P21554); assay: Displacement of [3H]SR141716A from human CB1 expressed in CHO cells at 10 uM; format: cell-based
metric: Activity (%)

CCCCCCCCN1C(=O)NC(c2ccc(F)cc2)(c2ccc(F)cc2)C1=O : 40.1

A. CCCCCCCN1C(=O)NC(c2ccc(Br)cc2)(c2ccc(Br)cc2)C1=O
B. CCCCN1C(=O)C(c2ccc(Cl)cc2)(c2ccc(Cl)cc2)NC1=S
Lab log: flag the item ( A or B ) with the smaller Activity figure. When you have decided, please share the label of that item.
A

1. O=C1N(Cc2ccccc2)C(=S)NC1(c1ccc(Cl)cc1)c1ccc(Cl)cc1
2. O=C1NC(c2ccccc2)(c2ccccc2)C(=O)N1Cc1ccccc1
Lab log: flag the item ( 1 or 2 ) with the smaller Activity figure. When you have decided, please share the label of that item.
2
(2: 33.7%, 1: 74.2%)

###

target: UniProtKB P21554; assay: Displacement of [3H]SR141716A from human CB1 expressed in CHO cells at 10 uM; assay type: cell-based
This listing pairs compounds with measured Activity.

CCCCN1C(=O)NC(c2ccccc2)(c2ccccc2)C1=O : < 20%

Activity for CCCCCCCC/C=C\CCCCCCCCN1C(=O)C(c2ccccc2)(c2ccccc2)NC1=S ?
< 10%

Entry to check: CCCCCCCCCCCCCCN1C(=O)C(c2ccccc2)(c2ccccc2)NC1=S
< 10%

Entry to check: CCCCCCCN1C(=O)CNC1=O
< 20%

Entry to check: O=C1C(c2ccccc2)NC(=S)N1c1ccccc1 (centres undefined)
< 20%

Entry to check: CCCCCCCCCCN1C(=O)C(c2ccccc2)(c2ccccc2)NC1=S
< 10%

###

This listing pairs molecules with measured Activity.
target: Cannabinoid receptor 1 (Homo sapiens) (UniProt P21554); assay: Displacement of [3H]SR141716A from human CB1 expressed in CHO cells at 10 uM; type: cell-based

The following molecules have reported results that may help.
O=C1CNC(=O)N1c1ccccc1 : < 20%
O=C1CNC(=S)N1c1ccccc1 : < 20%

For Cannabinoid receptor 1 (Homo sapiens) (UniProt P21554), provide Activity of CCCCN1C(=O)CNC1=O please.
< 20%

Entry to check: CCCCN1C(=O)CNC1=S
< 20%

Entry to check: O=C1NC(=S)N(c2ccccc2)C1c1ccccc1 (stereo not given)
< 20%

Entry to check: CCCCCCCN1C(=O)C(c2ccccc2)(c2ccccc2)N(CCCCCCC)C1=S
< 20%

Entry to check: CCCCCCCN1C(=O)C(c2ccccc2)NC1=S (stereo not given)
< 20%

Entry to check: O=C1N(Cc2ccccc2)C(=S)NC1(c1ccccc1)c1ccccc1
44.7%

Entry to check: CCCCCCCCCCCCCCCCCCN1C(=O)C(c2ccccc2)(c2ccccc2)NC1=S
< 10%

Entry to check: CCCCCCCCCCN1C(=O)NC(c2ccccc2)(c2ccccc2)C1=O
< 20%

###

target: UniProtKB P21554; test: Displacement of [3H]SR141716A from human CB1 expressed in CHO cells at 10 uM; assay type: cell-based
This listing pairs compounds with measured Activity.

The following compounds have reported results that may help.
O=C1NC(=O)N(c2ccccc2)C1c1ccccc1 (stereo not drawn) : < 20%
CCCCCCCCCCCCCCCCN1C(=O)C(c2ccccc2)(c2ccccc2)NC1=S : < 10%

Kindly review the next compound as well.
Activity for O=C1NC(=O)C(c2ccccc2)(c2ccccc2)N1 ?
< 20%
